tested on: NCI-H460 lung; assay: NCI-60 one-dose screen, 48 h (100 = growth as untreated, 0 = no growth, -100 = all killed); details: 10 µM unless noted
About 83,000 compounds went through this panel and 20% of them were active in at least one assay; those are over-represented in the sample as a whole.
measurement_type: growth (%)
Report the value in % with no unit label.

Ask | Reported growth for NCI-H460 lung, given CCC(=O)Oc1ccc(/C(=C(\C)c2ccccc2)c2ccc(OCCN3CCCCC3)cc2)cc1 ?
Reply | 72

Ask | Reported growth for NCI-H460 lung, given O=c1[nH]nc(-c2ccccc2)c2sc3ncc(-c4ccc(Br)cc4)n3c12 ?
Reply | 33.8

Ask | Reported growth for NCI-H460 lung, given C#CCNC(=O)c1cccc2c1cc(C)n2-c1nc2c(c(NCc3ccccc3)n1)CCCC2 ?
Reply | -30.8

Ask | Reported growth for NCI-H460 lung, given O=[N+]([O-])c1cc(Br)c2cccc3c2c1CC3 ?
Reply | 106

Ask | Reported growth for NCI-H460 lung, given NS(=O)(=O)c1ccc(CCn2c(SCC(=O)c3ccc(Cl)cc3)nc3ccccc3c2=O)cc1 ?
Reply | 105
